# Study Target: Multidrug resistance-associated protein 1 (Homo sapiens, UniProt P33527)
# Sequence (P33527 whole entry): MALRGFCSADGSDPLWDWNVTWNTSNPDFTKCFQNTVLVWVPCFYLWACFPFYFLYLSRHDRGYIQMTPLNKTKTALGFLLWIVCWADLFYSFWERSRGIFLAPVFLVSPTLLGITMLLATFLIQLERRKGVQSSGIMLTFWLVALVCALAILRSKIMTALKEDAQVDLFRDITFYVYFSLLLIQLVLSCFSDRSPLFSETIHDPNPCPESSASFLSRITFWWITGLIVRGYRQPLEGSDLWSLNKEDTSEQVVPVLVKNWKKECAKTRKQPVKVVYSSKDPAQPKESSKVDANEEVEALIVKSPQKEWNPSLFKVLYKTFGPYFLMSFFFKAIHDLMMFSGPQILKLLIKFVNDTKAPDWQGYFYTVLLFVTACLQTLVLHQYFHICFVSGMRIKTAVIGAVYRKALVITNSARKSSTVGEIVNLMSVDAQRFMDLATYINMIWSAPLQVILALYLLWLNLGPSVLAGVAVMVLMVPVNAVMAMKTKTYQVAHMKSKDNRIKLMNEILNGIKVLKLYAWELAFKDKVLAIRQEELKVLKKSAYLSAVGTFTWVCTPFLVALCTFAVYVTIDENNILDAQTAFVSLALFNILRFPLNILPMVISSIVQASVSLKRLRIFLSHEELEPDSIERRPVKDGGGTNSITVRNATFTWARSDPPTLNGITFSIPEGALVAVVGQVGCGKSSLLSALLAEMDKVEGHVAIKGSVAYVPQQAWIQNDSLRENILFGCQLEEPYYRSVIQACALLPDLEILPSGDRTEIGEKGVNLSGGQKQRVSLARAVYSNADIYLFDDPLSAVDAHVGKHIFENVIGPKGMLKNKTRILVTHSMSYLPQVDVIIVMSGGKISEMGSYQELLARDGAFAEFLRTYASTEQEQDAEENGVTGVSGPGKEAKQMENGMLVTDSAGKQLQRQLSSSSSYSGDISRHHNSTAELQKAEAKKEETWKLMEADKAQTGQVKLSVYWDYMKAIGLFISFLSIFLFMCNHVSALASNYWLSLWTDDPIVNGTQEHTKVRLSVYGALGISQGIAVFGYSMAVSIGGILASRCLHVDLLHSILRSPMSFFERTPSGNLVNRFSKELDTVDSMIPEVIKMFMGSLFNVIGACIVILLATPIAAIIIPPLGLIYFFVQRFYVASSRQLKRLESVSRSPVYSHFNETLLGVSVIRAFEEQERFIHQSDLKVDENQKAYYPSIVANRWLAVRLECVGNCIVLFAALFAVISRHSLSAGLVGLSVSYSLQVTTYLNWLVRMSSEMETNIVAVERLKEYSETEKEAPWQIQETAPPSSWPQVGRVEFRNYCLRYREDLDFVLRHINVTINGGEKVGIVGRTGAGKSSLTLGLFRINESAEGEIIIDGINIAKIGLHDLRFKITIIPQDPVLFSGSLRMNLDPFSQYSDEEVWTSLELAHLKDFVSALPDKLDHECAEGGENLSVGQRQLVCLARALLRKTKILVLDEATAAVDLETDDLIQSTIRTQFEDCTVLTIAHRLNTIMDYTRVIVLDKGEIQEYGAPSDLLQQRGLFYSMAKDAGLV
# Measurement Protocol: Inhibition of MRP1 in human 2008/MRP1 cells assessed as potentiation of doxorubicin-induced cytotoxicity by measuring cell survival at 2 uM after 5 days by MTS assay relative to control
# Format: cell-based
# Test Settings: 120 h
Listing of entries alongside the reported Survival.
Field format: number, assumed %, no unit text.

Use the examples below as a reference point.
Cpd Smiles: O=c1cc(-c2ccc(OCCCc3cn(CCOCCOCCOc4ccc(-c5cc(=O)c6ccccc6o5)cc4)nn3)cc2)oc2ccccc12
Survival, %: 56
//
Cpd Smiles: O=c1c(OCc2ccccc2)c(-c2ccc(OCCOCCOCCn3cc(CN(Cc4ccccc4)Cc4cn(CCOCCOCCOc5ccc(-c6oc7ccccc7c(=O)c6OCc6ccccc6)cc5)nn4)nn3)cc2)oc2ccccc12
Survival, %: 87
//
Cpd Smiles: O=c1c(OCc2ccccc2)c(-c2cccc(OCCOCCn3cc(-c4cccc(-c5cn(CCOCCOc6cccc(-c7oc8ccccc8c(=O)c7OCc7ccccc7)c6)nn5)c4)nn3)c2)oc2ccccc12
Survival, %: 89

// moving on: another record for Survival
Measured Survival, `C#Cc1cccc(C#C)c1` : 84
